assayed_target: HIV-F (synthetic construct)
method_description: ELONA; apparent Kd, phage ELISA, Zn2+
run_conditions: protein: virion; label: biotin
pKd: −log10 of the molar value.

binder | pKd
HIV-F site (dsDNA) DNA 1: GGAGCTCTCT DNA 2: AGAGAGCTCC | 7.88
